Test system: SNB-19 CNS
Test: NCI-60 one-dose screen, 48 h (100 = growth as untreated, 0 = no growth, -100 = all killed)
Conditions: 10 µM unless noted
About 83,000 compounds went through this panel and 20% of them were active in at least one assay; those are over-represented in the sample as a whole. The source made the active and inactive calls. How the source made its calls: active means growth percent below 10; inactive means the rest.
metric name: growth

# molecule, measured result
records = [
    ("O=C(/C=C/c1ccccc1)Nc1ncc(Cc2ccccc2Cl)s1", "30.5% (inactive)"),
    ("CCOC(=O)c1ccc(NC(=O)c2nc(-c3cc(OC)c(OC)c(OC)c3)n(-c3ccc(Cl)cc3)n2)cc1", "88.8% (inactive)"),
    ("Cc1cccc(CNc2c3ccccc3nc3ccccc23)c1", "29.7% (inactive)"),
    ("CCOC(=O)c1nn(-c2ccc(S(N)(=O)=O)cc2)c2nc(C)cc(=O)n12", "98.8% (inactive)"),
    ("COc1ccc(C2CC(c3ccc(Nc4nc(Nc5ccccc5)nc(Nc5ccccc5)n4)cc3)=NN2C(C)=O)cc1 (stereo not given)", "88.7% (inactive)"),
    ("N#Cc1c(-c2ccc(Cl)cc2)nc(NN2C(=O)c3ccccc3C2=O)nc1N1CCOCC1", "94.1% (inactive)"),
    ("C#COc1cccc(Nc2c(C#N)cnc3ncc(NC(=O)CCl)cc23)c1", "11% [6.25 µM] (inactive)"),
    ("Cc1cccc(/C=C2\\CN(C(=O)OC(C)(C)C)C/C(=C\\c3cccc(C)c3)C2=O)c1", "95.9% (inactive)"),
    ("O=C(O)c1cn(C2CC2)c2cc(N3CCN(C(=O)N(c4ccccc4)c4nc(-c5ccccc5)cs4)CC3)c(F)cc2c1=O", "15.7% (inactive)"),
    ("COc1cc2c(cc1OCCCN1CCN(CCCOc3cc4c(cc3OC)C(=O)N3CC(F)(F)C[C@H]3C=N4)CC1)N=C[C@@H]1CC(F)(F)CN1C2=O", "47.2% (inactive)"),
    ("C1CN(SSN2CCOCC2)CCO1", "67% [100 µM] (inactive)"),
    ("COc1cc(OCc2cccc(Br)c2C)cc(OC)c1C=O", "91.8% (inactive)"),
    ("Nc1c(C(=O)Nc2ccccc2C(F)(F)F)sc2nc3c(cc12)CCC3", "98.4% (inactive)"),
    ("CS(=O)(=O)Nc1cc(-c2ccc3ncnc(Nc4ccc5c(cnn5Cc5ccc(F)cc5)c4)c3c2)cnc1Cl", "47% (inactive)"),
    ("COc1cc(C2CC(c3ccc(Nc4nc(Nc5ccc(Cl)cc5)nc(Nc5ccc(Cl)cc5)n4)cc3)=NN2C(C)=O)cc(OC)c1OC (stereo not given)", "102% (inactive)"),
    ("O=C1C(Cl)=C(NCCCCCCNC2=C(Cl)C(=O)c3ccccc3C2=O)C(=O)c2ccccc21", "96.3% (inactive)"),
    ("Cn1c(I)c(C#CCO[Si](C)(C)C(C)(C)C)c(=O)[nH]c1=O", "104% (inactive)"),
    ("CCCC/C=C/[C@@H]1C[C@H]1CCO", "96.3% (inactive)"),
    ("Cc1cc(N2CCCCC2)cc(C)c1-c1csc(NC(=O)c2ccncc2)n1", "59.8% (inactive)"),
    ("COc1ccc(C(=O)c2cc3c(N)c(C(=O)Nc4ccc(C)cc4)sc3nc2C)cc1", "28.9% (inactive)"),
]

###

Test system: SF-539 CNS
Assay: NCI-60 one-dose screen, 48 h (100 = growth as untreated, 0 = no growth, -100 = all killed)
Settings: 10 µM unless noted
This is part of a sample that, as a whole, favours compounds with a hit. Of some 83,000 tested, about 20% had one in any assay.
Classify: TRUE when growth is strictly less than 90%; FALSE when growth is not.

# compound, answer label
records = [
    ("COC(=O)[C@]12CCC(C)(C)C[C@H]1[C@H]1/C(=N/OCCc3nn[nH]n3)C[C@@H]3[C@@]4(C)CC[C@H](OC(C)=O)C(C)(C)[C@@H]4CC[C@@]3(C)[C@]1(C)CC2", "TRUE"),
    ("O=C(Nc1cccc2ccccc12)NC1CC1", "FALSE"),
    ("COc1cc(/C=C2/C=C(c3ccccc3)N(CCc3ccc(S(N)(=O)=O)cc3)C2=O)cc(OC)c1OC", "FALSE"),
    ("CCc1ncnc2c1ccn2C(C)c1ccc(OC)c(F)c1 (centres undefined)", "TRUE"),
    ("CCO/C=N/C1=C(C#N)C(c2ccc(Cl)cc2)c2sc3c(F)cccc3c2O1 (centres undefined)", "TRUE"),
    ("C=CCSc1nnc(NC(=O)CCl)s1", "FALSE"),
    ("C=C1C(=O)O[C@H]2[C@H]1CC/C(Cn1cc(-c3ccccc3)nn1)=C\\CC[C@@]1(C)O[C@@H]21", "TRUE"),
    ("O=C1Nc2ccccc2/C1=C/c1cccn1CCCCn1c2ccccc2c(=O)c2ccccc21", "FALSE"),
]

###

Reported growth is given for each of the following molecules.
Tested on: SK-OV-3 ovarian
Experiment: NCI-60 one-dose screen, 48 h (100 = growth as untreated, 0 = no growth, -100 = all killed)
Settings: 10 µM unless noted
This is part of a sample that, as a whole, favours compounds with a hit. Of some 83,000 tested, about 20% had one in any assay.

# input smiles, unit spec, growth
data = [
    ("CC(C)c1ccc(-n2c(=S)[nH]c3sc4cc(O)ccc4c3c2=O)cc1", "%", 112),
    ("CC(C)=CCC[C@](C)(O)[C@H]1CC[C@]2(C)[C@@H]1CC[C@@H]1[C@@]3(C)C/C(=C/c4ccco4)C(=O)C(C)(C)[C@@H]3CC[C@]12C", "%", 109),
    ("Cc1cccc(/C=C2\\CN(C(=O)OC(C)(C)C)C/C(=C\\c3cccc(C)c3)C2=O)c1", "%", 93.3),
    ("O=c1c2cccc3c(N4CCCC4)ccc(c32)c2nc3ccccc3n12", "%", 79.1),
]

###

System: HS 578T breast
Assay: NCI-60 one-dose screen, 48 h
Details: 10 µM unless noted
The panel holds about 83,000 compounds, 20% with a hit somewhere; the sample as a whole holds those more often. Active and inactive are the calls of the source. Rule for the calls: active = growth percent below 10; inactive = the rest.
Possible outcomes: label 1 for active, label 0 for inactive

# compound, target system, answer label
measured = [
    ("CCN1C(=S)N(c2ccccc2)C2NC(=S)N(/N=C/C=C/c3ccccc3OC)C21 (centres undefined)", "HS 578T breast", "label 1"),
    ("CC(C)Cn1cnc2c(=O)[nH]c(N)nc21", "HS 578T breast", "label 0"),
    ("COc1ccc(OC)c(/C=N/Nc2ncnc3c2c(C)nn3C)c1", "HS 578T breast", "label 0"),
    ("Nc1c(C(=O)Nc2ccccc2C(F)(F)F)sc2nc3c(cc12)CCC3", "HS 578T breast", "label 0"),
    ("O=C(O)c1cn(C2CC2)c2cc(N3CCN(Cc4ccc5ccccc5c4O)CC3)c(F)cc2c1=O", "HS 578T breast", "label 1"),
    ("Cc1ccc(-c2nc([P+](c3ccccc3)(c3ccccc3)c3ccccc3)c(S(=O)(=O)c3ccc(C)cc3)o2)cc1", "HS 578T breast", "label 1"),
    ("Cc1c[n+](Cc2ccc3ccccc3c2)cn1Cc1ccc2ccccc2c1", "HS 578T breast", "label 0"),
    ("Cn1ccnc1C(=O)/C=C/c1ccc(C(=O)Nc2ccccc2O)cc1", "HS 578T breast", "label 0"),
    ("C#CCNC(=O)[C@H](CC)[C@H]1CC[C@H](C)[C@H]([C@@H](C)[C@H](O)[C@H](C)C(=O)[C@H](CC)C2O[C@]3(C=CC(=O)[C@]4(CC[C@@](C)([C@H]5CC[C@](O)(CC)[C@H](C)O5)O4)O3)[C@H](C)C[C@@H]2C)O1 (some centres undefined)", "HS 578T breast", "label 0"),
]

###

Test system: OVCAR-5 ovarian
Test: NCI-60 one-dose screen, 48 h (100 = growth as untreated, 0 = no growth, -100 = all killed)
Settings: 10 µM unless noted
About 83,000 compounds went through this panel and 20% of them were active in at least one assay; those are over-represented in the sample as a whole.
metric name: growth (%)

# compound, measured result
measured = [
    ("COc1c(B(O)O)cccc1-c1cc(C)c2c(ccc3[nH]ncc32)n1", 72.1),
    ("CCOc1nc(-c2ccccc2)cc2c(O)c(C(=O)N/N=C/c3ccccc3)[nH]c(=O)c12", 111),
    ("N#Cc1nc(-c2ccccc2)oc1S(=O)(=O)N1CCN(c2ccccc2)CC1", 112),
    ("CCOC(=O)c1cc2c(n1Cc1cc(OC)c(OC)c(OC)c1)-c1nc(N)sc1CCC2", 98.3),
    ("O=C1/C(=C/c2cccc(F)c2)CN(C(=O)C(Cl)Cl)C/C1=C\\c1cccc(F)c1", -63.6),
    ("COc1ccc(C(=O)/C=C/c2c(C(F)(F)F)nc3ccccn23)cc1OC", 9.01),
    ("COC(=O)c1c(C)c2n(c1C)C(=O)C(c1ccccc1)=C2", 68.9),
    ("CCCCNC(=O)CC1=C(C)/C(=C/c2[nH]c(-c3ccc[nH]3)cc2OC)N=C1C", 50.2),
    ("Oc1c(I)cc(I)cc1CNCCN(Cc1ccccn1)Cc1ccccn1", -24.3),
    ("Nc1nc2ccc(-c3nc4ccc5[nH]ncc5c4c4c3CCCC4)cc2s1", 105),
    ("Cc1ccc2c(Cn3cc(CSc4nc5ccccc5o4)nn3)cc(=O)oc2c1", 116),
    ("O=C(NCc1ccc(Cl)cc1Cl)C1CCC(=O)N1c1cccs1 (stereo unspecified)", 91.2),
    ("N#Cc1c(-c2ccc(Cl)cc2)c(C#N)c2c(C#N)c(N)nn2c1N", 86.9),
    ("CS(=O)(=O)Nc1cc(-c2ccc3ncnc(Nc4ccc5c(cnn5Cc5ccc(F)cc5)c4)c3c2)cnc1Cl", 44.7),
    ("Oc1c(I)cc(I)cc1CNCc1ccccn1", 61.9),
    ("COc1ccc(CNc2c3ccccc3nc3ccccc23)cc1", 46.4),
    ("Cc1ccc(Nc2cc(N)nc(N)n2)cc1Cl", 94.6),
    ("COc1cc2c(cc1OC)C(C)N(S(N)(=O)=O)CC2 (stereo unspecified)", 82.6),
    ("Cc1cc(C(=O)O)c(C)n1-c1cccc(C(=O)O)c1", 66.4),
    ("COc1ccc2cc1Oc1ccc(cc1)C[C@H]1c3c(cc4c(c3Oc3cc5c(cc3OC)CCN(C)[C@@H]5C2)OCO4)CCN1C", 90.2),
    ("COC(=O)c1cc(N=C2NC(=O)/C(=C/C=C/c3ccccc3)S2)ccc1O", 71),
]
